Data credit: the supplement of paper PMC8047044

- System: Neuro-2a
- protocol_details: neurite formation score, plate-normalized to DMSO control mean 5.04 (score (0-8 scale)); higher = more or longer neurites
- measurement_conditions: 0.1 µM
Give measured neurite formation score for each item. Keep answers brief.

Known results for compounds:
Nc1ncnc2c1c(-c1cccc(OCc3ccccc3)c1)cn2C1CC(CN2CCC2)C1 (centres undefined)    4.71
O=C1NC(=O)[C@@H](c2cn3c4c(cccc24)CCC3)[C@@H]1c1c[nH]c2ccccc12 [Tivantinib (ARQ 197)]    0.876
Cn1cc(-c2ccc3c(c2)CCN3C(=O)Cc2cccc(C(F)(F)F)c2)c2c(N)ncnc21    5.25

For every listed record, write down its neurite formation score.
1. CS(=O)(=O)N1CCN(Cc2cc3nc(-c4cccc5[nH]ncc45)nc(N4CCOCC4)c3s2)CC1
2. CC(=O)Nc1nc(C)c(-c2ccc(Cl)c(S(=O)(=O)NCCO)c2)s1

Solution:
1. 5.21
2. 3.88

For every listed record, write down its neurite formation score.
1. Nc1nccc(-c2c(-c3ccc(F)cc3)ncn2C2CCCCC2)n1
2. Fc1cc(-c2cccc3ncc(-c4cnn(C5CCNCC5)c4)nc23)cc(F)c1CN1CCOCC1
3. CN(C)CCSSCCNC(=O)C1CCN(C(=O)CSc2ccc(Cl)cc2)CC1
4. COc1cc(Nc2ncc(F)c(Nc3ccc4c(n3)N(COP(=O)(O)O)C(=O)C(C)(C)O4)n2)cc(OC)c1OC [Fostamatinib (R788)]

Solution:
[5.58, 4.09, 4.58, 3.76]

====

- Test system: Neuro-2a
- protocol_details: neurite formation score, plate-normalized to DMSO control mean 5.04 (score (0-8 scale)); higher = more or longer neurites
- measurement_conditions: 0.1 µM
Class key for neurite formation score values: b0: < 4; b1: ≥ 4 and < 5; b2: ≥ 5

Past entries and their recorded results:
CCN(CC)CCNC(=O)c1c(C)[nH]c(/C=C2\C(=O)Nc3ccc(F)cc32)c1C [Sunitinib]    b2
Cc1ccccc1-n1c(Cn2nc(-c3cccc(O)c3)c3c(N)ncnc32)nc2cccc(C)c2c1=O    b1
O=C1NC(=O)/C(=C/c2ccc3nccc(-c4ccncc4)c3c2)S1    b2
O=c1oc2c(O)c(O)cc3c(=O)oc4c(O)c(O)cc1c4c23    b1
CO[C@H]1C[C@@H]2CC[C@@H](C)[C@@](O)(O2)C(=O)C(=O)N2CCCC[C@H]2C(=O)O[C@H]([C@H](C)C[C@@H]2CC[C@@H](OCCO)[C@H](OC)C2)CC(=O)[C@H](C)/C=C(\C)[C@@H](O)[C@@H](OC)C(=O)[C@H](C)C[C@H](C)/C=C/C=C/C=C/1C [Everolimus (RAD001)]    b2
COc1ccc(S(=O)(=O)N(C(C)=O)c2ccccc2/C=C/c2cc[n+]([O-])cc2)cc1    b0
O=C(COc1ccc(Cl)cc1)NC1CCC(NC(=O)COc2ccc(Cl)cc2)CC1 (stereo not drawn) [ISRIB (trans-isomer)]    b1
Cn1sc(=O)n(Cc2ccccc2)c1=O    b1

Exercise: Which of the defined bands does the recorded neurite formation score of O=c1cc(CN2CCOCC2)occ1OCCCCCSc1ccnc2cc(C(F)(F)F)ccc12 sit within?
Solution: b2

Exercise: Which of the defined bands does the recorded neurite formation score of CN(C)C/C=C/C(=O)Nc1cc2c(Nc3ccc(F)c(Cl)c3)ncnc2cc1O[C@H]1CCOC1 [Afatinib dimaleate] sit within?
Solution: b1

Exercise: Which of the defined bands does the recorded neurite formation score of O=C(NC1CCNCC1)c1n[nH]cc1NC(=O)c1c(Cl)cccc1Cl sit within?
Solution: b2

Exercise: Which of the defined bands does the recorded neurite formation score of C[C@@H](Oc1cc(-c2cnn(C3CCNCC3)c2)cnc1N)c1c(Cl)ccc(F)c1Cl [(R)-Crizotinib] sit within?
Solution: b1

Exercise: Which of the defined bands does the recorded neurite formation score of Cc1[nH]c2ccccc2c1C1=C(NCCc2ccc(F)cc2)C(=O)N(C)C1=O sit within?
Solution: b0
